molecular target: CYP 2C9 (Homo sapiens); assay: CYP inhibition activity, 2C9; type: in vitro ADME
Sequence (P11712 whole entry): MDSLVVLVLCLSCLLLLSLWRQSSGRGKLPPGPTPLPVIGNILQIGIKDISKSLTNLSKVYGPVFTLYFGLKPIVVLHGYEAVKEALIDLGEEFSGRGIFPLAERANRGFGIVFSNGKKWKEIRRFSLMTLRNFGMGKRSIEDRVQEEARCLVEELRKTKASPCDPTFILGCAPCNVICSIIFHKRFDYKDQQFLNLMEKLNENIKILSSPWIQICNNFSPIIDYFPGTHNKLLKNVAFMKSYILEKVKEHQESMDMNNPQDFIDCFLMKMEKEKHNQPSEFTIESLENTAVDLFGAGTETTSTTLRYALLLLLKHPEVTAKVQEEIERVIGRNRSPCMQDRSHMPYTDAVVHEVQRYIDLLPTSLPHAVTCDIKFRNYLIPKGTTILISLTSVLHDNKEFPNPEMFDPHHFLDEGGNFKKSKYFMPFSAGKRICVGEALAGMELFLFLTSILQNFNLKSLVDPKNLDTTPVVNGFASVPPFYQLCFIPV
MEASUREMENT_LABEL: IC50

Quick one: IC50 of `NC(=O)c1cccc(-c2cnc3[nH]cc(-c4ccoc4)c3c2)c1` ? > 50 µM

* * *

assay: Caco-2 permeability determination; format: in vitro ADME; details: human; Caco-2, A→B
MEASUREMENT_LABEL: Papp A→B
Answer with the number, then the unit.

{"columns": ["COMPOUND", "Papp A→B"],
 "data": [
  ["NC(=O)c1cccc(-c2cnc3[nH]cc(-c4ccoc4)c3c2)c1", "27 ×10⁻⁶ cm/s"],
  ["CC(C)(C)NCC(O)COc1cccc2c1CC(O)C(O)C2 (stereo not shown)", "0.2 ×10⁻⁶ cm/s"],
  ["C[C@H]1O[C@@H](O[C@H]2[C@@H](O)C[C@H](O[C@H]3[C@@H](O)C[C@H](O[C@H]4CC[C@@]5(C)[C@H](CC[C@@H]6[C@@H]5C[C@@H](O)[C@]5(C)[C@@H](C7=CC(=O)OC7)CC[C@]65O)C4)O[C@@H]3C)O[C@@H]2C)C[C@H](O)[C@@H]1O", "0.9 ×10⁻⁶ cm/s"]
]}

The record that follows has no Papp A→B shown yet.
Looking for the measured Papp A→B of CC(C)NCC(O)COc1cccc2ccccc12 (stereo not shown) , can you help? 40.2 ×10⁻⁶ cm/s
